- Tested on: HOP-92
- Experimental Protocol: Growth inhibition of human HOP92 cells after 48 hrs by SRB assay
- Format: functional
- Condition Label: HOP-92, 48 h
molecules and their reported GI50

Here is how some molecules turned out for GI50.
{"Molecule": "COc1ccc(/C=C\\c2cc(OC)c(OC)c(OC)c2)cc1OCC(=O)Nc1ccc2nc(C)sc2c1", "GI50": "2.38 µM"}
{"Molecule": "COc1ccc(/C=C\\c2cc(OC)c(OC)c(OC)c2)cc1OCC(=O)Nc1nc2ccccc2s1", "GI50": "0.039 µM"}
{"Molecule": "COc1ccc(/C=C\\c2cc(OC)c(OC)c(OC)c2)cc1OCC(=O)Nc1nc2ccc(OC(F)(F)F)cc2s1", "GI50": "2.74 µM"}
{"Molecule": "COc1ccc(/C=C\\c2cc(OC)c(OC)c(OC)c2)cc1OCC(=O)Nc1nc2ccc(F)cc2s1", "GI50": "5.73 µM"}
{"Molecule": "COc1ccc(/C=C\\c2cc(OC)c(OC)c(OC)c2)cc1O [COMBRETASTATIN A4]", "GI50": "0.002 µM"}

Check the records and state GI50 for `COc1ccc2nc(NC(=O)COc3cc(/C=C\c4cc(OC)c(OC)c(OC)c4)ccc3OC)sc2c1`
6.28 µM

Check the records and state GI50 for `COc1ccc(/C=C\c2cc(OC)c(OC)c(OC)c2)cc1OCC(=O)Nc1nc2ccc(C(F)(F)F)cc2s1`
2.88 µM
